Organism: Homo sapiens
measurement_description: Compound was tested for anti-proliferative activity in human hepatocytes
Assay type: functional, organism-based
test_conditions: Hepatocyte
parameter: pEC50
Keep in mind that pEC50 stands for -log10 of concentration in molar terms.

Data request: Report pEC50 for O=CN(O)CCCCCC(C(=O)Nc1cnc2ccccc2c1)C(=O)Nc1cnc2ccccc2c1 please.
Data returned: 4.39

----------
tested_system: Histone deacetylase
measurement_description: Inhibition of Histone deacetylase (HDAC)of HeLa nuclear extracts
Assay type: protein assay, Homo sapiens
Recorded log10(IC50) for the following molecules
On a log10 scale: recorded IC50, unit µM.

item_smiles	log10(IC50)
O=CN(O)CCCCCCCC(=O)Nc1cccc2ccccc12	1.70
O=CN(O)CCCCCC(C(=O)Nc1ccc2ncccc2c1)C(=O)Nc1ccc2ncccc2c1	-0.12
O=CN(O)CCCCCC(C(=O)Nc1cnc2ccccc2c1)C(=O)Nc1cnc2ccccc2c1	-0.01
O=CN(O)CCCCCNC(=O)c1ccc2ccccc2c1	0.64

Attention now shifts to the item below.
Data request: Report log10(IC50) for O=CN(O)CCCCCCCC(=O)Nc1ccc2ccccc2c1 please.
Data returned: 0.60

----------
tested_system: Protein deacetylase HDAC6 (Homo sapiens, UniProt Q9UBN7)
Sequence (Q9UBN7 whole entry): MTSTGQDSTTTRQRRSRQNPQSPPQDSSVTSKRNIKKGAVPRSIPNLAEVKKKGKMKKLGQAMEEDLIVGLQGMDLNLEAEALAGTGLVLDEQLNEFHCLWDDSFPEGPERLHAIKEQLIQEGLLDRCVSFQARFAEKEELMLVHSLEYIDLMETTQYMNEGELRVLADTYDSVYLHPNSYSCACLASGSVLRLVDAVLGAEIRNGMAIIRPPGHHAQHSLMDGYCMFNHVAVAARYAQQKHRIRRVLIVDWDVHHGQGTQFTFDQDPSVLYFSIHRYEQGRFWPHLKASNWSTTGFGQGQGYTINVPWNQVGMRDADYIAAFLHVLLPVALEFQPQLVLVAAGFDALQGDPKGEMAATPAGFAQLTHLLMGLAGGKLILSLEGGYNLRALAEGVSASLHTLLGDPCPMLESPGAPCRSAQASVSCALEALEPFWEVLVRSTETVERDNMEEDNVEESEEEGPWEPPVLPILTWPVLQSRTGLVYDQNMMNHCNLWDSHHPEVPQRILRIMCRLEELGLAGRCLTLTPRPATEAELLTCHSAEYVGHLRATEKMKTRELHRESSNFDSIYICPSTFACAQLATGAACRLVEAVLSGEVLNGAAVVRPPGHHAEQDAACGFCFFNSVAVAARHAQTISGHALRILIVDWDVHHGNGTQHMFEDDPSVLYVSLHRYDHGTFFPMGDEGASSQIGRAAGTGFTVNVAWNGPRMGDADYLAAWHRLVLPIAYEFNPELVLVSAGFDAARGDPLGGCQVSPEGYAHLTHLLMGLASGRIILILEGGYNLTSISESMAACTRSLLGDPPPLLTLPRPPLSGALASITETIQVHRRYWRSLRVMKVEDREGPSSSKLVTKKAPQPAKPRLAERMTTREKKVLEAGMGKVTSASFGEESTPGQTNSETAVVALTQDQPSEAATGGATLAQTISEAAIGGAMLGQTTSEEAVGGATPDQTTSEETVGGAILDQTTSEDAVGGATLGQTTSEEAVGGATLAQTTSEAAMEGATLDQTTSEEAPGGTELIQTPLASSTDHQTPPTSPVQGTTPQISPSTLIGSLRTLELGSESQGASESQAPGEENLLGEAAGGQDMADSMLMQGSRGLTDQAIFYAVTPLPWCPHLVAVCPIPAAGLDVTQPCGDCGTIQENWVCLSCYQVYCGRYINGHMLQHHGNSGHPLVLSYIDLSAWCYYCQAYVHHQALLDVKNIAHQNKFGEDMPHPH
Recorded IC50 for the following compounds
Answer format: numeric, µM implied, no suffix.

Here is how some compounds turned out for IC50.
item_smiles	recorded_number
O=CN(O)CCCCCNC(=O)c1ccccc1	4.3
O=CN(O)CCCCCC(C(=O)Nc1cnc2ccccc2c1)C(=O)Nc1cnc2ccccc2c1	0.78
O=CN(O)CCCCCCCC(=O)Nc1ccccc1	5.5

Attention now shifts to the item below.
Data request: Report IC50 for O=CN(O)CCCCCC(C(=O)Nc1ccc2ncccc2c1)C(=O)Nc1ccc2ncccc2c1 please.
Data returned: 0.62

----------
List of IC50 tested on UniProt Q13547.
Sequence (Q13547 whole entry): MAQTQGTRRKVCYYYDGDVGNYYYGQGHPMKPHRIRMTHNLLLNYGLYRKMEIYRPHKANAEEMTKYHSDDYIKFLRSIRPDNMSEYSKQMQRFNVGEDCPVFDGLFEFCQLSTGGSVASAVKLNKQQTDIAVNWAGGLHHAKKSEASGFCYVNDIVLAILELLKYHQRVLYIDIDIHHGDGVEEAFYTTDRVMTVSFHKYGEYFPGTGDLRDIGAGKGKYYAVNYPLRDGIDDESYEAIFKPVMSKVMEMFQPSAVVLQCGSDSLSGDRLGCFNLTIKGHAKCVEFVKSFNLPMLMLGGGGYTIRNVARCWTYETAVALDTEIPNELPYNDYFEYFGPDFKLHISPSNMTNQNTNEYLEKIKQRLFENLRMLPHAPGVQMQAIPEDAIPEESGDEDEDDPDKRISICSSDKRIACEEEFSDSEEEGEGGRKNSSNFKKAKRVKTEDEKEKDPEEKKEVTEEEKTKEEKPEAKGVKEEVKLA
Could you write the number and then its unit?

Here is how some molecules turned out for IC50.
item_smiles	tested_system	IC50
O=CN(O)CCCCCNC(=O)c1ccc2ccccc2c1	UniProt Q13547	1300 nM
O=CN(O)CCCCCC(C(=O)Nc1cnc2ccccc2c1)C(=O)Nc1cnc2ccccc2c1	UniProt Q13547	160 nM
O=CN(O)CCCCCNC(=O)c1ccccc1	UniProt Q13547	30000 nM
O=CN(O)CCCCCC(C(=O)Nc1ccc2ncccc2c1)C(=O)Nc1ccc2ncccc2c1	UniProt Q13547	180 nM

Attention now shifts to the item below.
Data request: Report IC50 for O=CN(O)CCCCCNC(=O)CCc1ccccc1 please.
Data returned: 49000 nM

----------
List of pIC50 tested on Histone deacetylase 2 (Homo sapiens).
Sequence (Q92769 whole entry): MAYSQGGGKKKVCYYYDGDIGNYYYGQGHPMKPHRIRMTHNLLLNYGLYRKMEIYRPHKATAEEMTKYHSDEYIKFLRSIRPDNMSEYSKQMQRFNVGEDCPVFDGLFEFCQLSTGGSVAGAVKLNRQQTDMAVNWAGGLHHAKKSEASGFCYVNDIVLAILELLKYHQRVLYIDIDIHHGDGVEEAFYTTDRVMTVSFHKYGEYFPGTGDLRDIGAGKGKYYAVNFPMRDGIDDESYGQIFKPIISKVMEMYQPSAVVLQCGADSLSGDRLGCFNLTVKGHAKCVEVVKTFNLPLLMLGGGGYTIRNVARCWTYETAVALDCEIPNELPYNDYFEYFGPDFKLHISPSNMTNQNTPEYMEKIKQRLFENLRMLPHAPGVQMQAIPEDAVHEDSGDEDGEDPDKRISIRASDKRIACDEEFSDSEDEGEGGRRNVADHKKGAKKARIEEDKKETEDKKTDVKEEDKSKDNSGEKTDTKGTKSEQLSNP
pIC50: −log10 of the molar value.

Here is how some compounds turned out for pIC50.
item_smiles	result
CC(=O)N(O)CCCCCC(=O)Nc1ccccc1	< 4.00
CC(=O)N(O)CCCCCCCC(=O)Nc1ccccc1	< 4.00

Data request: Report pIC50 for O=CN(O)CCCCCC(C(=O)Nc1cnc2ccccc2c1)C(=O)Nc1cnc2ccccc2c1 please.
Data returned: 6.70

Data request: Report pIC50 for COC(=O)N(O)CCCCCCC(=O)Nc1ccccc1 please.
Data returned: < 4.00

----------
Recorded IC50 for the following compounds
tested_system: Histone deacetylase
measurement_description: Inhibition of Histone deacetylase (HDAC)of HeLa nuclear extracts
Format: protein assay, Homo sapiens

Data request: Report IC50 for O=CN(O)CCCCCNC(=O)CCc1ccccc1 please.
Data returned: > 100 µM

Data request: Report IC50 for CC(=O)N(O)CCCCCC(=O)Nc1ccccc1 please.
Data returned: > 100 µM

Data request: Report IC50 for O=CN(O)CCCCCNC(=O)c1ccccc1 please.
Data returned: > 100 µM
